# System: Pyrenophora graminea
# assay-name: In vitro test on activity against Pyrenophora graminea
# Type: cell-based
# study-conditions: 10 ppm, 48 hours, 20° C., read-out: % growth inhibition of the fungus
readout-type: inhibition at 10 ppm (%)
Give the number; % is assumed, so skip it.

System Pyrenophora graminea. Read-out inhibition at 10 ppm. Item CC[S+]([O-])c1sc(C(=O)c2ccc(Cl)cc2)cc1C#N (stereo not shown) [(47)] . Report value.
74

System Pyrenophora graminea. Read-out inhibition at 10 ppm. Item N#Cc1sc([S+]([O-])Cc2ccccc2)c(C#N)c1Cl (stereo not shown) [(78)] . Report value.
86

System Pyrenophora graminea. Read-out inhibition at 10 ppm. Item CC[S+]([O-])c1sc(C#N)c(Oc2ccccc2)c1C#N (stereo not shown) [(94)] . Report value.
70

System Pyrenophora graminea. Read-out inhibition at 10 ppm. Item CC[S+]([O-])c1sc(C#N)c(Cl)c1C#N (stereo not shown) [(7)] . Report value.
83

System Pyrenophora graminea. Read-out inhibition at 10 ppm. Item CCCC[S+]([O-])c1sc(C(C)=O)c(Cl)c1C#N (stereo not shown) [(39)] . Report value.
81

System Pyrenophora graminea. Read-out inhibition at 10 ppm. Item C[S+]([O-])c1sc(C#N)c(-c2ccc(Cl)cc2)c1C#N (stereo not shown) [(35)] . Report value.
76

System Pyrenophora graminea. Read-out inhibition at 10 ppm. Item C[S+]([O-])c1sc(C(=O)c2ccccc2)cc1C#N (stereo not shown) [(51)] . Report value.
71

System Pyrenophora graminea. Read-out inhibition at 10 ppm. Item C[S+]([O-])c1sccc1[N+](=O)[O-] (stereo not shown) [(b), 2-methylsulphinyl-3-nitrothiophene, reference compound] . Report value.
37

System Pyrenophora graminea. Read-out inhibition at 10 ppm. Item CC(=O)c1sc([S+](C)[O-])c(C#N)c1Cl (stereo not shown) [(2)] . Report value.
79

System Pyrenophora graminea. Read-out inhibition at 10 ppm. Item CCCC[S+]([O-])c1sc(C#N)c(Br)c1C#N (stereo not shown) [(79)] . Report value.
80

System Pyrenophora graminea. Read-out inhibition at 10 ppm. Item CC[S+]([O-])c1sc(C(=O)c2ccc(Cl)cc2)c(Cl)c1C#N (stereo not shown) [(72)] . Report value.
70

System Pyrenophora graminea. Read-out inhibition at 10 ppm. Item C[S+]([O-])c1sc(C(=O)c2ccc(Cl)cc2)cc1C#N (stereo not shown) [(52)] . Report value.
71

System Pyrenophora graminea. Read-out inhibition at 10 ppm. Item CC[S+]([O-])c1sc(C(=O)c2ccc(Cl)cc2)c(N)c1C#N (stereo not shown) [(66)] . Report value.
84

System Pyrenophora graminea. Read-out inhibition at 10 ppm. Item C[S+]([O-])c1sc(C#N)c(Cl)c1C#N (stereo not shown) [(3)] . Report value.
80

System Pyrenophora graminea. Read-out inhibition at 10 ppm. Item CCC[S+]([O-])c1sc(C#N)c(Cl)c1C#N (stereo not shown) [(33)] . Report value.
83

System Pyrenophora graminea. Read-out inhibition at 10 ppm. Item C[S+]([O-])c1sc(C#N)c(Sc2ccccc2)c1C#N (stereo not shown) [(85)] . Report value.
73

System Pyrenophora graminea. Read-out inhibition at 10 ppm. Item C[S+]([O-])c1sc(C#N)cc1C#N (stereo not shown) [(4), 2-methylsulphinyl-3,5-dicyanothiophene] . Report value.
84

System Pyrenophora graminea. Read-out inhibition at 10 ppm. Item CC[S+]([O-])c1sc(C#N)cc1C#N (stereo not shown) [(8), 2-ethylsulphinyl-3,5-dicyanothiophene] . Report value.
72

System Pyrenophora graminea. Read-out inhibition at 10 ppm. Item CCCC[S+]([O-])c1sc(C#N)c(Cl)c1C#N (stereo not shown) [(43)] . Report value.
72

System Pyrenophora graminea. Read-out inhibition at 10 ppm. Item N#Cc1sc([S+]([O-])c2ccccc2)c(C#N)c1Cl (stereo not shown) [(82)] . Report value.
80

System Pyrenophora graminea. Read-out inhibition at 10 ppm. Item CCCC[S+]([O-])c1sc(C(C)=O)c(Br)c1C#N (stereo not shown) [(86)] . Report value.
76

System Pyrenophora graminea. Read-out inhibition at 10 ppm. Item CCSC(=C(C#N)c1ccc(Cl)cc1)[S+]([O-])CC (stereo not shown) [(53)] . Report value.
83

System Pyrenophora graminea. Read-out inhibition at 10 ppm. Item C[S+]([O-])c1sc(C(=O)c2ccccc2)c(Cl)c1C#N (stereo not shown) [(31)] . Report value.
77

System Pyrenophora graminea. Read-out inhibition at 10 ppm. Item CC[S+]([O-])c1sc(C(C)=O)c(Cl)c1C#N (stereo not shown) [(5)] . Report value.
89

System Pyrenophora graminea. Read-out inhibition at 10 ppm. Item CC(=O)c1sc([S+](C)[O-])c(C#N)c1-c1ccc(Cl)cc1 (stereo not shown) [(6)] . Report value.
77
